tested-system: T1, pKal (Homo sapiens, UniProt P03952)
T1 construct: two disulfide linked polypeptides; a heavy chain of approximately 52 kDa and a catalytic domain of approximately 34 kDa; host or cells: human plasma
T1 sequence (P03952 391-638 limits assumed): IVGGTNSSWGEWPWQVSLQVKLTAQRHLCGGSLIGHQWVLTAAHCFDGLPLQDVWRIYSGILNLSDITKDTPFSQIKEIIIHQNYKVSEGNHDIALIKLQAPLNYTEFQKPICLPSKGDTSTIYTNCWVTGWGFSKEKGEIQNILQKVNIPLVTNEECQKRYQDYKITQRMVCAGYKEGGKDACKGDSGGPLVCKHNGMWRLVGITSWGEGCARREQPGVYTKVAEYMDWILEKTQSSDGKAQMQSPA
T1 sequence (P03952 20-390 partner limits assumed): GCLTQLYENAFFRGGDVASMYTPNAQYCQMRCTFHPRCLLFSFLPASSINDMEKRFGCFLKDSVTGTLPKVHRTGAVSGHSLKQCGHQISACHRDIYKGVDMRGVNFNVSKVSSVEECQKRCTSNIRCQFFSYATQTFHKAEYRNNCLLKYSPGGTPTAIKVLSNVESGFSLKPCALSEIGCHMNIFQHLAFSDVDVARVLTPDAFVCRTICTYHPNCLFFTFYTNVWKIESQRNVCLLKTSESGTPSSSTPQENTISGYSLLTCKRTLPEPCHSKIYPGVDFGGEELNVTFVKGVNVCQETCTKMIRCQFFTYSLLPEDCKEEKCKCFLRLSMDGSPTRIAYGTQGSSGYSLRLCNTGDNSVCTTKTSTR
measurement-notes: Fab fragments (small scale) tested for inhibition against human pKal in an in vitro protease cleavage assay
Assay type: biochemical
measurement-parameters: Table 9
measure-name: Inhibit as a Fab?

[[record]]
molecule = "X66-H02: single point mutation of M142-H08 (P1); HV-CDR3 GGLLLWFGELKSNYFDY (antibody, V domains shown) VL: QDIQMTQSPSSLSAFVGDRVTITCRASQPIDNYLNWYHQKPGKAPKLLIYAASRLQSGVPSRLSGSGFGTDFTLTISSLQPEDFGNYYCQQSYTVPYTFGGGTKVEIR VH: EVQLLESGGGLVQPGGSLRLSCAASGFTFSAYSMIWVRQAPGKGLEWVSYIRPSGGRTTYADSVKGRFTISRDNSKNTLYLQMNSLRAEDTAVYYCARGGLLLWFGELKSNYFDYWGQGTLVTVSSASTKGPSVFPLAPSSKS"
measurement = "No"

[[record]]
molecule = "X67-F08: single point mutation of M142-H08 (P2); HV-CDR3 GGLLLWYRELKSNYFDY (antibody, V domains shown) VL: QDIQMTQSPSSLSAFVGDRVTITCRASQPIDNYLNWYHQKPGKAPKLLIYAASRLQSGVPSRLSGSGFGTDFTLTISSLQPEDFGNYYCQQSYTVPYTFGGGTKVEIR VH: EVQLLESGGGLVQPGGSLRLSCAASGFTFSAYSMIWVRQAPGKGLEWVSYIRPSGGRTTYADSVKGRFTISRDNSKNTLYLQMNSLRAEDTAVYYCARGGLLLWYRELKSNYFDYWGQGTLVTVSSASTKGPSVFPLAPSSKS"
measurement = "Yes"

[[record]]
molecule = "X66-E04: single point mutation of M142-H08 (P1); HV-CDR3 GGLLLWFQELKSNYFDY (antibody, V domains shown) VL: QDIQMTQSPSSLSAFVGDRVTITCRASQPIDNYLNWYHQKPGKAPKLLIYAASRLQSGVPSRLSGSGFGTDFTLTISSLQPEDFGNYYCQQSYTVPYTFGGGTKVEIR VH: EVQLLESGGGLVQPGGSLRLSCAASGFTFSAYSMIWVRQAPGKGLEWVSYIRPSGGRTTYADSVKGRFTISRDNSKNTLYLQMNSLRAEDTAVYYCARGGLLLWFQELKSNYFDYWGQGTLVTVSSASTKGPSVFPLAPSSKS"
measurement = "No"

[[record]]
molecule = "X66-C11: single point mutation of M142-H08 (P1); HV-CDR3 GGLLLWFHELKSNYFDY (antibody, V domains shown) VL: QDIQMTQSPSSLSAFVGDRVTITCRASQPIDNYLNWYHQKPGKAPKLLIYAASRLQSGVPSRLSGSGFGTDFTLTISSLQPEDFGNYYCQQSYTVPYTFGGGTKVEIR VH: EVQLLESGGGLVQPGGSLRLSCAASGFTFSAYSMIWVRQAPGKGLEWVSYIRPSGGRTTYADSVKGRFTISRDNSKNTLYLQMNSLRAEDTAVYYCARGGLLLWFHELKSNYFDYWGQGTLVTVSSASTKGPSVFPLAPSSKS"
measurement = "No"


Cited source for all entries: patent US20100183625A1
